B1: Intersectin-1, residues 909 to 971; numbered along this chain, Q15811 (parent)
chain: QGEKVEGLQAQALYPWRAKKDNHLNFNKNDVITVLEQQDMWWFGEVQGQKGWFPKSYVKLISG

Variants of: B1
Assay Procedure: abundance fitness (aPCA) (normalised: wild type 0, dead -1); higher = more abundant; growth selection in yeast, the domain comes from the species named
Condition Set: Homo sapiens
Measured Attribute: abundance fitness
Answers are plain numbers.

Solved cases below.
Report abundance fitness for Y57L please.
0.013

Thanks! And F43G ?
-0.596

And the next one, Q11R ?
-0.067

Below are 4 variants. Give each one its abundance fitness.
1. I32A
2. T33I
3. G2T
4. E36H

-0.7
-0.213
-0.051
-0.235
